Ref: patent US20190077795A1

- System: human PRMT6 (Homo sapiens, UniProt Q96LA8)
- Construct: Flag-PRMT6-His; made in house; host or cells: HEK 293F cells (BacMam baculovirus, pFastBacMam)
- Sequence (Q96LA8 with tags, fused parts or gaps): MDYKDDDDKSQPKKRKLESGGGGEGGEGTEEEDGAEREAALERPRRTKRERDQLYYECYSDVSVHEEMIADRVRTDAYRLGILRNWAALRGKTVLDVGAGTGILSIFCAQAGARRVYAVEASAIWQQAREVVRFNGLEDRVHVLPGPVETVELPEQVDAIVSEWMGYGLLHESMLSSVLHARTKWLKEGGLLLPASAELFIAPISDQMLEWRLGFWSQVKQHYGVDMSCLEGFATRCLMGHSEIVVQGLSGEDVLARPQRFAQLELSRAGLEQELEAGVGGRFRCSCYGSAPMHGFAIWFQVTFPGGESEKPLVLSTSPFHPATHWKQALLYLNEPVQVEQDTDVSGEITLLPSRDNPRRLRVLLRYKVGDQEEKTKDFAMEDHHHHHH
- Method description: PRMT6 Biochemical Assay
- Experimental conditions: read-out: PRMT6 IC50
Reported endpoint: pIC50
Numbers only, as −log10 of the molar value.

// compound CNCCN(C)Cc1c[nH]nc1-c1cc(OC(CO)CC(C)C)cc(C(F)(F)F)c1 (stereo not shown) [Compound 73] , assay human PRMT6 (Homo sapiens, UniProt Q96LA8), pIC50 value: 5.72

----------
Exercise: state measured IC50 for each of the compounds provided.
- System: human PRMT6 (Homo sapiens, UniProt Q96LA8)
- Construct: Flag-PRMT6-His; made in house; host or cells: HEK 293F cells (BacMam baculovirus, pFastBacMam)
- Method description: PRMT6 Biochemical Assay
- Experimental conditions: peptide substrate, 3H-SAM Flashplate assay; read-out: PRMT6 IC50
- Excerpt: S-adenosylmethionine (SAM), S-adenosylhomocysteine (SAH), bicine, Tween20, dimethylsulfoxide (DMSO), bovine skin gelatin (BSG), sodium butyrate and Tris(2-carboxyethyl)phosphine hydrochloride solution (TCEP) were purchased from Sigma-Aldrich at the highest level of purity possible. ^3H-SAM was purchase from American Radiolabeled Chemicals with a specific activity of 80 Ci/mmol. 384-well streptavidin Flashplates were purchased from PerkinElmer. […]
Answers are plain numbers, in nM.

Worked examples follow.
CNCCN(C)Cc1ccnn1C1CCC2(CCOCC2)CC1; 34.7
CNCCN(C)Cc1c[nH]nc1-c1cnc(OCCCOC)c(C(F)(F)F)c1; 77.7
CNCCN(C)Cc1c[nH]nc1-c1ccc(OCCOc2cccc(C)c2)cc1; 3.15
CNCCN(C)Cc1c[nH]nc1-c1ccc(OCCC(O)CO)cc1 (centres unmarked); 54.8

Next, consider the following compound.
# compound CNCCN(C)Cc1c[nH]nc1-c1cc(OC2CCCC2)cc(C(F)(F)F)c1 ; its IC50 = 254

----------
Exercise: state measured IC50 for each of the compounds provided.
- System: human PRMT6 (Homo sapiens, UniProt Q96LA8)
- Construct: Flag-PRMT6-His; made in house; host or cells: HEK 293F cells (BacMam baculovirus, pFastBacMam)
- Method description: PRMT6 Biochemical Assay
- Experimental conditions: peptide substrate, 3H-SAM Flashplate assay; read-out: PRMT6 IC50
Give bare numbers, in nM.

CNCCN(C)Cc1c[nH]nc1-c1ccc(OCCOc2ccccc2)cc1; 11.4
CNCCN(C)Cc1c[nH]nc1-c1ccc(OCCOc2ccc(OC(F)(F)F)cc2)cc1; 7.03
CNCCN(C)Cc1c[nH]nc1-c1ccc(S(C)(=O)=O)cc1; 30.9
CNCCN(C)Cc1c[nH]nc1-c1cc(F)c(OC2CCOCC2)c(C(F)(F)F)c1; 18.9
CNCCN(C)Cc1c[nH]nc1-c1ccc(OCCOc2ccc(C(C)C)cc2)cc1; 5.74

Hi, could you look up IC50 for each item in my list?
1. C=C(C)COc1c(Cl)cc(-c2n[nH]cc2CN(C)CCNC)cc1C(F)(F)F
2. CCC(CO)Oc1cc(-c2n[nH]cc2CN(C)CCNC)cc(C(F)(F)F)c1 (stereo not drawn)
3. CNCCN(C)Cc1cnn(C)c1-c1cccc(OC2CC2)c1

Response:
1. 29.5
2. 3510
3. 73.7

----------
- System: human PRMT8 (Homo sapiens)
- Sequence (Q9NR22 whole entry): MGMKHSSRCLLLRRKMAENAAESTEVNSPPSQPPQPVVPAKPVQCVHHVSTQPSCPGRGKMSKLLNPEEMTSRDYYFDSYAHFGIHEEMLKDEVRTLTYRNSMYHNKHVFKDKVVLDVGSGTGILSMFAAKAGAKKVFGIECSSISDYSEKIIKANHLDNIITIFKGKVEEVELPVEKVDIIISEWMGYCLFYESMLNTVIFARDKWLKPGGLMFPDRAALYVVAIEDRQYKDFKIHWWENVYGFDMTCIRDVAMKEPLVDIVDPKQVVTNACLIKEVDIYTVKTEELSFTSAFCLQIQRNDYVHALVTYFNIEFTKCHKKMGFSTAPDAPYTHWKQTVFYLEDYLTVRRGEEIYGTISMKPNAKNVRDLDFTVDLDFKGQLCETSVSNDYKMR
- Method description: PRMT8 Biochemical Assay
- Experimental conditions: PRMT8 IC50 (uM), peptide substrate, 3H-SAM Flashplate assay
Reported endpoint: IC50 (µM)
One number for each entry, in µM.

CNCCN(C)Cc1c[nH]nc1-c1ccc(N2CCCC2)nc1; 0.0309

Hi, could you look up IC50 for each item in my list?
1. CNCCN(C)Cc1cnn(CCOC)c1-c1ccc(OC(C)C)cc1
2. CNCCN(C)Cc1c[nH]nc1-c1ccc(OCCOc2ccc(OC(C)C)cc2)cc1
3. CNCCN(C)Cc1c[nH]nc1-c1ccc(OCCOc2ccc(OC)cc2)cc1
4. CNCCN(C)Cc1c[nH]nc1-c1ccc(OCCOc2ccc(OCCN3CCOCC3)cc2)cc1
5. C=C(C)COc1c(Cl)cc(-c2n[nH]cc2CN(C)CCNC)cc1C(F)(F)F
6. CNCCN(C)Cc1c[nH]nc1-c1ccc(OCCOc2ccc(C(O)CO)cc2)cc1 (stereo not drawn)
7. CNCCN(C)Cc1c[nH]nc1-c1ccc(C#N)cc1
8. CNCCN(C)Cc1cnn(C)c1-c1cccc(CC(C)C)c1

Response:
0.0601
0.0233
0.0336
0.026
0.0122
0.026
0.0231
0.0877

----------
- System: human PRMT6 (Homo sapiens)
- Construct: Flag-PRMT6-His; made in house; host or cells: HEK 293F cells (BacMam baculovirus, pFastBacMam)
- Method description: PRMT6 Biochemical Assay
- Experimental conditions: peptide substrate, 3H-SAM Flashplate assay; read-out: PRMT6 IC50
Reported endpoint: log10 of IC50 (log10 of the value in µM)
Parameter value (number): base-10 log of IC50 in µM.

Worked examples follow.
CNCCN(C)Cc1c[nH]nc1-c1ccc(N2CCCCC2)nc1 [Compound 66]; -1.39
CNCCN(C)Cc1c[nH]nc1-c1ccc(OCCOc2cccc(OCCC(O)CO)c2)cc1 (stereo not drawn) [Compound 31]; -2.36
CNCCN(C)Cc1c[nH]nc1-c1ccc(N(C)CCOc2cccc(OC)c2)cc1 [Compound 57]; -2.04
CNCCN(C)Cc1c[nH]nc1-c1cc(Cl)c(OCC2CCC2)c(Cl)c1 [Compound 2]; -1.92
CNCCN(C)Cc1ccnn1-c1ccc(OC(C)C)cc1 [Compound 80]; -0.94

Hi, could you look up log10 of IC50 for each item in my list?
1. CNCCN(C)Cc1c[nH]nc1-c1cc(F)c(OCCOC)c(C(F)(F)F)c1 [Compound 103]
2. CNCCN(C)Cc1c[nH]nc1-c1ccc(N(C)C2CCOCC2)cc1 [Compound 111]
3. CNCCN(C)Cc1c[nH]nc1-c1cc(OCCC(C)(C)O)cc(C(F)(F)F)c1 [Compound 93]

Response:
-1.56
-0.02
0.53

Hi, could you look up log10 of IC50 for each item in my list?
1. CNCCN(C)Cc1c[nH]nc1-c1ccc(OCCOc2ccc(CO)cc2)cc1 [Compound 16]
2. CNCCN(C)Cc1c[nH]nc1-c1ccc(OCCOc2ccc(OCCC3CCOCC3)cc2)cc1 [Compound 55]

Response:
1. -2.43
2. -1.73

Hi, could you look up log10 of IC50 for each item in my list?
1. CNCCN(C)Cc1c[nH]nc1-c1ccc(OCCOc2ccc(Oc3ccc(OCCOC)cc3)cc2)cc1 [Compound 15]
2. CNCCN(C)Cc1c[nH]nc1-c1ccc(OCCOc2ccnnc2)cc1 [Compound 112]
3. CNCCN(C)Cc1c[nH]nc1-c1cc(OCCOC)cc(C(F)F)c1 [Compound 24]
4. CNCCN(C)Cc1c[nH]nc1-c1ccc(OC2CC(OCCN3CCOCC3)C2)cc1 (stereo not drawn) [Compound 147]
5. CNCCN(C)Cc1c[nH]nc1-c1ccc(OC2CC(OCC(C)C)C2)cc1 (stereo not drawn) [Compound 131]
6. CNCCN(C)Cc1c[nH]nc1-c1ccc(N(C)CC2CCOCC2)nc1 [Compound 120]
7. CNCCN(C)Cc1c[nH]nc1-c1cc(F)c(OC(CO)CO)c(C(F)(F)F)c1 [Compound 107]
8. CNCCN(C)Cc1c[nH]nc1-c1ccc(NC(C)c2ccncc2)nc1 (stereo not drawn) [Compound 67]

Response:
1: -2.62; 2: -1.56; 3: -0.67; 4: -1.79; 5: -1.74; 6: -0.57; 7: -1.18; 8: -1.51

Hi, could you look up log10 of IC50 for each item in my list?
1. CNCCN(C)Cc1c[nH]nc1-c1ccc(OCCOc2cccnn2)cc1 [Compound 90]
2. CNCCN(C)Cc1c[nH]nc1-c1ccc(OCCOc2ccc(OC(C)C)cc2)cc1 [Compound 33]
3. CNCCN(C)Cc1c[nH]nc1-c1ccc(OCCOc2cccc(C(C)C)c2)cc1 [Compound 62]
4. CNCCN(C)Cc1ccnn1C1CCC2(CCCO2)CC1 (stereo not drawn) [Compound 63]

Response:
-1.70
-2.25
-2.37
-1.50

Hi, could you look up log10 of IC50 for each item in my list?
1. CNCCN(C)Cc1n[nH]cc1-c1cc(C(=O)C(C)C)cc(C(F)(F)F)c1 [Compound 134]
2. CNCCN(C)Cc1c[nH]nc1-c1ccc(OC2CC(O)C2)cc1 (stereo not drawn) [Compound 85]
3. CNCCN(C)Cc1c[nH]nc1-c1ccc(OCCCS(C)(=O)=O)cc1 [Compound 128]
4. CNCCN(C)Cc1c[nH]nc1-c1ccc(N2CCCC2=O)cc1 [Compound 99]
5. CNCCN(C)Cc1c[nH]nc1-c1ccc(OCCOc2ccc(Oc3ccccc3)cc2)cc1 [Compound 6]
6. CNCCN(C)Cc1cnn(C2CCC2)c1-c1ccc(OC(C)C)cc1 [Compound 141]
7. CNCCN(C)Cc1c[nH]nc1-c1ccc(OCCOc2ccc(C(O)CO)cc2)cc1 (stereo not drawn) [Compound 21]

Response:
0.32
-1.84
-1.46
-1.20
-2.46
-1.06
-2.21

Hi, could you look up log10 of IC50 for each item in my list?
1. COCCCOc1cc(-c2n[nH]cc2CN(C)CCN)cc(C(F)(F)F)c1Cl [Compound 115]
2. CNCCN(C)Cc1c[nH]nc1-c1ccc(OCCOc2ccc(OCCC(O)CO)cc2)cc1 (stereo not drawn) [Compound 35]
3. CNCCN(C)Cc1c[nH]nc1-c1cc(C(=O)NCCOC)cc(C(F)(F)F)c1 [Compound 101]
4. CNCCN(C)Cc1c[nH]nc1-c1cc(OCCOC)cc(C(C)C)c1 [Compound 95]
5. CCCOCCOc1cc(-c2n[nH]cc2CN(C)CCNC)cc(C(F)(F)F)c1 [Compound 60]

Response:
1. 0.26
2. -2.30
3. 0.42
4. -0.11
5. 0.08
